Assay: inhibitors of TWEAK-Fn14 signaling, primary screen, luciferase reporter cells, uHTS (AID 1159606)
Conditions: TWEAK-stimulated Fn14 reporter cells, luciferase luminescence, 8 h; at 10 µM; stronger effect = higher value
Out of some 360,000 compounds screened, about 7,300 (2%) were called active. The list comes from a sample in which actives are over-represented; it also holds close analogues and randomly drawn compounds.
List of inhibition values.
Give the quantity in %, number only.

# example entries with known answers
{"columns": ["Molecule", "inhibition [%]"],
 "data": [
  ["O=C(NCC1CCCO1)c1cc2c([nH]c3ccccc32)c(-c2ccc(F)cc2)n1 (centres undefined)", 51],
  ["CCN(CC(=O)Nc1ccccc1C(F)(F)F)C(=O)C1CCN(C(=O)Nc2ccccc2)CC1", 4.09],
  ["CCOc1ccc2nc(NC(=O)c3cc([N+](=O)[O-])ccc3N3CCOCC3)sc2c1", 58.5],
  ["COC(=O)c1onc(-c2c(OC)cc(OC)cc2OC)c1C(=O)OC", 10.7],
  ["Cc1noc(C)c1NC(=O)N(C)C[C@@H]1Oc2cc(Br)ccc2S(=O)(=O)N([C@@H](C)CO)C[C@H]1C", 18.1],
  ["O=C(NCc1ccc2c(c1)OCO2)c1cc([N+](=O)[O-])ccc1N1CCOCC1", 9.16],
  ["O=C1CCC(=O)N(O)CCCCCNC(=O)CCC(=O)N(O)CCCCCNC(=O)CCC(=O)N(O)CCCCCN1", -10.8],
  ["C=CCn1c(SCC(=O)NC(=O)Cc2ccccc2)nc2ccccc2c1=O", 14]
]}

For the next question, use this molecule.
**Query** Given COc1ccc(CN(Cc2ccco2)S(=O)(=O)c2ccc(S(=O)(=O)N3CCCC3)cc2)cc1 , state its recorded inhibition.
**Result** -30.2

* * *

Experiment: inhibitors of TWEAK-Fn14 signaling, primary screen, luciferase reporter cells, uHTS (AID 1159606)
Details: TWEAK-stimulated Fn14 reporter cells, luciferase luminescence, 8 h; at 10 µM; stronger effect = higher value
Hit rate of the full screen: of about 360,000 compounds, about 7,300 (2%) were called active. The entries come from a sample that favours actives as a whole.
Quick rule: inhibition of at least 10% means Fulfilled, below that means Not fulfilled.

{"columns": ["Compound", "Qualitative label"],
 "data": [
  ["CC(C)=CCN1CCN(Cc2ccc(Oc3ncccn3)cc2)CC1CCO (stereo not given)", "Fulfilled"],
  ["Cc1ccc(OCC(=O)Nc2ccc(NC(=O)c3cccs3)cc2)c(C)c1", "Not fulfilled"],
  ["CC(=O)c1ccc(-c2cnc3c(NC=O)cc(-c4cccc(NS(C)(=O)=O)c4)cn23)cc1", "Not fulfilled"],
  ["O=C(CC(O)(C(F)(F)F)C(F)(F)F)Nc1ccc(Cl)c(Cl)c1", "Fulfilled"],
  ["Cc1nc(-c2ccc(NC(=O)c3cccs3)cc2)cs1", "Fulfilled"]
]}

**Query** Identify whether the reported inhibition of the following compound is 10% or greater: CCc1ccc(NC(=O)C(=O)NNC(=O)c2cccs2)cc1
**Result** Not fulfilled

**Query** Also, COc1ccc(CNC(=O)c2cc(C(=O)C3CC3)c[nH]2)cc1 please.
**Result** Not fulfilled

**Query** Do the same for CN(CC(=O)Nc1ccc(Cl)c(C(F)(F)F)c1)C(=O)CCC(=O)c1ccccc1 please
**Result** Not fulfilled

**Query** Try this compound too: O=C(COC(=O)c1ccc(NS(=O)(=O)c2cccs2)cc1O)Nc1ccc(F)cc1
**Result** Not fulfilled

**Query** What do you have for CC(=O)Nc1cccc(-c2cc(NC=O)c3ncc(-c4ccc(F)c(Cl)c4)n3c2)c1 ?
**Result** Fulfilled
